Recorded values, source the supplement of paper PMC13380429.

cell viability for assorted molecules
# Tested on: HepG2
# Protocol Text: cell viability relative to DMSO; higher = less toxic
# Run Conditions: 72 h; 1 nM
Expressed in %, but write only the number.

Exercise: Look up and report measured cell viability for this entry: C[C@@H]1CN(CCCn2c3ccccc3c3ccccc32)C[C@H](C)N1 [rimcazole]
Solution: 106

----------
# System: U2OS
# Protocol Text: cell viability relative to DMSO; higher = less toxic
# Run Conditions: 72 h; 10000 nM
// boundary case: cell viability equal to 80% maps to 0; strictly smaller maps to 1

Compound | Measured On | Label Class
CCOC(=O)c1ccc(C#Cc2ccc3c(c2)C(C)(C)CCS3)nc1 [tazarotene] | U2OS | 0
CC[C@H]1CN2CCc3cc(OC)c(OC)cc3[C@@H]2C[C@@H]1C[C@H]1NCCc2cc(OC)c(OC)cc21 [emetine] | U2OS | 1
CN1Cc2ccccc2[C@@H]2c3cccc4[nH]cc(c34)C[C@H]21 [CY208-243] | U2OS | 0
N[C@]1(C(=O)O)CC[C@@H](C(=O)O)C1 [cis-ACPD] | U2OS | 0
CC(C)(C)C#Cc1cc(N(C(=O)[C@H]2CC[C@H](C)CC2)[C@H]2CC[C@@H](O)CC2)c(C(=O)O)s1 [VX-222] | U2OS | 0
CC(C)CCN1c2nc(Nc3cc(F)c(O)c(F)c3)ncc2N(C)C(=O)[C@@H]1C [BI-D1870] | U2OS | 1
CC(=O)O[C@@H]1C[C@H]2C(C)(C)C(=O)C=C[C@]2(C)[C@H]2CC[C@@]3(C)[C@H](c4ccoc4)OC(=O)[C@H]4O[C@]43[C@@]21C [gedunin] | U2OS | 0

Kindly review the next compound as well.
Exercise: A record lists CCOc1ccc(NC(C)=O)cc1 [phenacetin] . Is its cell viability below 80%?
Solution: 0

----------
# System: Calu-3
# Protocol Text: drug sensitivity score (DSS) for viability; higher = more toxic; extreme values may be limits of the assay
# Run Conditions: 72 h
Assay Readout: drug sensitivity score
Form rule: numeric answer, no unit written next to it.

Exercise: Quote drug sensitivity score with test system Calu-3 for CC(C)S(=O)(=O)NC[C@H](C)c1ccc(-c2ccc(CCNS(C)(=O)=O)cc2)cc1
Solution: 0.2

Exercise: Quote drug sensitivity score with test system Calu-3 for CC(C)(C)NCC(O)c1cc(Br)no1 (stereo not given)
Solution: 0

Exercise: Quote drug sensitivity score with test system Calu-3 for CCOC(=O)Nc1ccc(NCc2ccc(F)cc2)cc1N
Solution: 0

Exercise: Quote drug sensitivity score with test system Calu-3 for O=C1C=C2C=C[C@@H]3C[C@@]2(O1)[C@H]1CCCCN31
Solution: 0

Exercise: Quote drug sensitivity score with test system Calu-3 for COc1cc(Cc2cnc(N)nc2N)c(C(C)C)cc1OC
Solution: 0

----------
cell viability for assorted compounds
# Tested on: U2OS
# Protocol Text: cell viability relative to DMSO; higher = less toxic
# Run Conditions: 72 h; 100 nM
Expressed in %, but write only the number.

// solved cases for cell viability follow
Compound | Value Units | Readout Value
N[C@@H](Cc1cc(I)c(Oc2ccc(O)c(I)c2)c(I)c1)C(=O)O [liothyronine] | % | 93.4
CN(C)CCOC(c1ccccc1)c1ccccc1.Cn1c(=O)c2[nH]c(Cl)nc2n(C)c1=O [dimenhydrinate] | % | 98
CC1(C)OC[C@H](NC(=O)Nc2ccc(Br)cc2Br)[C@H](c2ccccc2)O1 | % | 96.6
Clc1ccc(C2(c3ccc(-c4cn[nH]c4)cc3)CCNCC2)cc1 [AT7867] | % | 94.9
CCc1[nH]c(=O)[nH]c1C(=O)c1ccncc1 [piroximone] | % | 94.6
N#CC(=C(/N)Sc1ccccc1N)/C(C#N)=C(/N)Sc1ccccc1N [U-0126] | % | 96.9
Nc1nccc(/C=C/c2ccccc2)n1 [TCN238] | % | 97.6
O=C(NC(Cc1cc(=O)[nH]c2ccccc12)C(=O)O)c1ccc(Cl)cc1 (stereo not given) [rebamipide] | % | 93.9

Exercise: Look up and report measured cell viability for this entry: N#Cc1cnc2cnc(NCc3cccnc3)cc2c1Nc1ccc(F)c(Cl)c1 [TC-S-7006]
Solution: 96.1

Exercise: Look up and report measured cell viability for this entry: COc1cc(OC)c(NC(=O)Nc2cc(C)on2)cc1Cl
Solution: 97.2

Exercise: Look up and report measured cell viability for this entry: Brc1ccc(NC2C3CC4CC(C3)CC2C4)cc1 (stereo not given) [bromantan]
Solution: 101

Exercise: Look up and report measured cell viability for this entry: Nc1c2c(nc3c1CCC3)CCCC2 [ipidacrine]
Solution: 103

Exercise: Look up and report measured cell viability for this entry: COc1cc2c(NC3CCN(C)CC3)nc(N3CCCN(C)CC3)nc2cc1OCCOCCN(C)C [UNC0321]
Solution: 98.3

Exercise: Look up and report measured cell viability for this entry: Cc1ncc(CO)c(CO)c1O [pyridoxine]
Solution: 98.1

Exercise: Look up and report measured cell viability for this entry: CC(CNC1CCCCC1)OC(=O)c1ccccc1 (stereo not given) [hexylcaine]
Solution: 99.1
